Test system: HSV2
Assay: Viral qPCR assay, HSV2 in Vero cells
Type: cell-based, Herpes Simplex Virus type 2
Conditions: Human alphaherpesvirus 2, Vero, 72 h, read-out: HSV2 VERO Cell (EC50)
Please go through the items and note down their log10 EC50.
All values: base-10 log of EC50 in nM.

Examples from the recorded data:
{"Compound": "O=C1CCC(CC2Cc3c(C(=O)NCc4ccc(Cl)cc4)nn(CCN4CC(F)(F)C4)c3C2)N1 (stereo not drawn)", "Endpoint Value": 3.85}
{"Compound": "CC(C)n1nc(C(=O)NCc2ccc(Cl)cc2)c2c1CN(C[C@H]1CCC(=O)N1)C2", "Endpoint Value": 2.76}
{"Compound": "CC(C)[C@H]1c2c(c(C(=O)NCc3ccc(Cl)cc3)nn2C)CN1C[C@@H]1CCC(=O)N1", "Endpoint Value": 2.29}
{"Compound": "O=C1CC[C@H](CC2Cc3c(C(=O)NCc4ccc(Cl)cc4)nn(CCN4CCOCC4)c3C2)N1 (stereo partly drawn)", "Endpoint Value": 3.03}
{"Compound": "CC(C)CN1CC(n2nc(C(=O)NCc3ccc(Cl)cc3)c3c2CC(C[C@H]2CCC(=O)N2)C3)C1 (stereo partly drawn)", "Endpoint Value": 3.29}

Batch request: log10 EC50 per item, same order as input.
1. O=C1CC[C@H](CC2Cc3c(C(=O)NCc4ccc(Cl)cc4)nn(C4CN(CC5CC5)C4)c3C2)N1 (single isomer, unassigned)
2. Cn1nc(C(=O)NCc2ccc(Cl)c(F)c2)c2c1CN(C[C@H]1CCC(=O)N1)C2
3. CN(CCn1nc(C(=O)NCc2ccc(Cl)cc2)c2c1CN(C[C@H]1CCC(=O)N1)C2)C(=O)C1CCC1
4. O=C1CC[C@H](CN2Cc3c(C(=O)NCc4ccc(Cl)cc4)nn(CCn4ccc(Cl)n4)c3C2)N1

3.40
3.74
4.76
3.45

Kindly give each listed record's log10 EC50.
1. CC1(Cn2nc(C(=O)NCc3ccc(Cl)cc3)c3c2CN(C[C@H]2CCC(=O)N2)C3)COC1
2. Cn1nc(C(=O)NCc2ccc(Cl)cc2F)c2c1CN(C[C@H]1CCC(=O)N1)C2
3. Cn1nc(C(=O)NCc2ccc(Cl)cc2)c2c1CN(C[C@H]1CCC(=O)N1)C2
4. O=C1CC[C@H](CC2Cc3c(C(=O)NCc4ccc(Cl)cc4)nn(CCN4CC(F)C4)c3C2)N1 (stereo partly drawn)
5. [2H]C([2H])([2H])n1nc(C(=O)NCc2ccc(Cl)cc2)c2c1CN(C[C@H]1CCC(=O)N1)C2
6. CC(C)(O)Cn1nc(C(=O)NCc2ccc(Cl)cc2)c2c1CN(C[C@H]1CCC(=O)N1)C2

4.21
4.58
2.22
3.97
3.55
2.85
